Cited source for all entries: ChEMBL document CHEMBL1201862

Overview of recorded GI50 for various molecules
tested on: COLO 205; experiment: NCI tumour cell line growth inhibition, 48 h
Active and inactive are the calls of the source. Cut-off read from the data, not from the text of the source: active = GI50 up to about 1.1 µM and inactive = higher.

molecule	GI50
CN/C=C(\C(=O)c1ccc(OC)c(OC)c1)c1ccc(OC)cc1	17.8 µM (inactive)
NC1=NC(c2ccc(Cl)cc2)N(c2ccc(S(N)(=O)=O)cc2)C(N)=N1 (stereo not given)	> 100 µM (inactive)
Cc1ccc(NC(=O)CC(=O)n2nc(C)c(/N=N/c3ccc(S(=O)(=O)CCOS(=O)(=O)O)cc3)c2C)cc1	> 100 µM (inactive)
O=c1[nH]c(=O)n(COCc2ccccc2)cc1Nc1ccc(Br)cc1	> 100 µM (inactive)
Cc1cc(C)nc(NS(=O)(=O)c2ccc(Nc3c4ccccc4nc4c(C(=O)N5CCN(CCO)CC5)ccc(Cl)c34)cc2)n1	63 µM (inactive)

====

tested on: UACC-62; assay: NCI tumour cell line growth inhibition, 48 h
Active and inactive are the calls of the source. Rule as the data show it: active = GI50 up to about 1.1 µM and inactive = higher.
Outcomes: active, inactive

molecule	target-or-test-system	category
C/C=C/CC(S(=O)(=O)c1ccccc1)S(=O)(=O)c1ccccc1	UACC-62	inactive
COC(C)(C)[C@@H](O)[C@H]1C[C@H](C)[C@@]2(CC[C@]3(C)[C@@H]2CC[C@@H]2[C@@]4(C)CC[C@@H](OC(C)=O)C(C)(C)[C@@H]4C[C@@H](OC4OC(COC(C)=O)C(O)C(O)C4O)[C@]23C)O1 (some centres undefined)	UACC-62	inactive
C/C(=N\NC(N)=S)c1ccc2c(c1)Sc1ccccc1O2	UACC-62	inactive
CCOc1ccc(OCC)c([P+](c2ccccc2)(c2ccccc2)c2ccccc2)c1	UACC-62	active
[N-]=[N+]=Nc1c([N+](=O)[O-])c(Cl)nc2ccccc12	UACC-62	inactive
C/C(=N\NC(=O)c1ccccc1O)c1cccc(/C(C)=N/NC(=O)c2ccccc2O)n1.[Cl-].[Cl-].[Zn+2]	UACC-62	inactive
CCN(CC)CSc1nc2ccccc2o1	UACC-62	inactive
c1ccc2c(c1)SC(=C1Sc3ccccc3S1)S2	UACC-62	inactive
COC(=O)C(CC1=C(O)Nc2ccccc2N1)/C(=N/NC(N)=O)C(=O)Nc1ccccc1C (centres undefined)	UACC-62	inactive
Cc1cc(C)n2nc3nc(N)c(C#N)c(-c4ccccc4)c3c2n1	UACC-62	inactive
CC(C)=CCc1c2c(c3occ(-c4ccc(O)c(O)c4)c(=O)c3c1O)C=CC(C)(C)O2	UACC-62	inactive
C=C1NC(=O)C(CC(C(=O)C(=O)Nc2c(C)cccc2C(C)(C)C)C(=O)c2ccc3ccccc3c2)C(=O)N1 (centres undefined)	UACC-62	inactive
O=C1C(=O)N(c2ccc(Cl)cc2)C(=O)C(=O)C1c1nc2ccccc2o1	UACC-62	inactive
CCOc1ccccc1NC(=O)CC1Sc2ccccc2NC1=O (centres undefined)	UACC-62	inactive
C=C(Cl)[C@@](Cl)(CBr)CC[C@@H](Br)C(C)(C)Cl	UACC-62	active
O=C(C#CP(=O)(O)c1ccccc1)c1ccccc1	UACC-62	inactive
Cc1ccc(NC(=O)CC(=O)n2nc(C)c(/N=N/c3ccc(S(=O)(=O)CCOS(=O)(=O)O)cc3)c2C)cc1	UACC-62	inactive
Cc1ccc(C)c(N2C/C(=N\NC(=O)CC#N)C(c3nc4ccccc4s3)C(=O)C2=O)c1 (centres undefined)	UACC-62	inactive
CC/C(C)=C1\CCC(CN2CCOCC2)C1=O (centres undefined)	UACC-62	inactive

====

Overview of recorded GI50 for various compounds
system: DLD-1; assay: NCI tumour cell line growth inhibition, 48 h
Activity calls are given as the source filed them. Cut-off read from the data, not from the text of the source: active = GI50 up to about 1.1 µM and inactive = higher.
property-label: GI50

compound	property-label	recorded-value
Cc1cc(C)c(-c2noc(-c3ccc(Cl)cc3)c2C2=NCCN2)c(C)c1	GI50	22.4 µM (inactive)
Cc1cccc(C)c1NC(=O)C1=NC(=S)NC(c2ccccc2)C1c1nc2ccccc2s1 (stereo not given)	GI50	> 100 µM (inactive)
O=C(O)c1cc2c(ncc3c(=O)n(-c4ccccc4)[nH]c32)s1	GI50	> 100 µM (inactive)
C[C@@H](CC(O)C1OC1(C)C)[C@@H]1CC[C@]2(C)C3=CCC4C(C)(C)C(O)CC[C@]4(C)C3CCC12C (stereo not given in full)	GI50	16.6 µM (inactive)
N#Cc1c([N+](=O)[O-])cc(C(F)(F)F)cc1[N+](=O)[O-]	GI50	3.87 µM (inactive)
O=C(CC1(O)C(=O)Nc2c(Cl)cccc21)c1ccccc1 (stereo not given)	GI50	> 100 µM (inactive)
CN1CCC(SC2Cc3cc(Cl)ccc3Sc3ccccc32)CC1 (stereo not given)	GI50	14 µM (inactive)
O=C(N/N=C(\C1=Nc2ccc(Cl)cc2NC1O)C(O)/C=C/c1ccccc1)c1ccncc1 (stereo not given)	GI50	> 100 µM (inactive)
C[n+]1ccc2[nH]c3ccccc3c2c1	GI50	> 100 µM (inactive)
CN(C)/C=N/c1nc2c(ncn2C2OC(CO)C(O)C2O)c(=O)[nH]1 (stereo not given)	GI50	> 100 µM (inactive)

====

tested on: SNB-78; test: NCI tumour cell line growth inhibition, 48 h
Activity calls are given as the source filed them. No stated cut-off is given here; in the data, active = GI50 up to about 1.1 µM and inactive = higher.
Overview of recorded GI50 for various compounds

compound	GI50
CC(C)Cc1ccc(C(C)/C=C2\CCC(CN3CCOCC3)C2=O)cc1 (stereo unspecified)	20.9 µM (inactive)
COc1cccc(-n2c3nc(=O)n(C)c(=O)c-3nc3ccccc32)c1	29.1 µM (inactive)
Cc1ccc2c(c1)-c1c3c(nn1-c1ccccc1)-c1ccccc1SC3O2 (stereo unspecified)	> 100 µM (inactive)
CCN(CC)CC(=O)N1CCc2c([nH]c3ccccc23)C1c1cccnc1 (stereo unspecified)	> 100 µM (inactive)
C[Si](C)(C)[C@@]1([Se]c2ccccc2)CC[C@@H]1C(=O)c1ccccc1	> 100 µM (inactive)
c1ccc2c(c1)SC(=C1Sc3ccccc3S1)S2	> 100 µM (inactive)
Cn1c2cccc3nnc4cccc(c4c32)n1C	> 100 µM (inactive)
O=C1C(=O)N(c2ccc(Cl)cc2)C(=O)C(=O)C1c1nc2ccccc2o1	> 100 µM (inactive)
C/C(=N\Nc1nnc(S)n1N)c1c(O)cc(C)oc1=O	> 100 µM (inactive)
CCN(CC)CC(O)CNc1ccc(NCC(O)CCl)c2c1C(=O)c1ccccc1C2=O (stereo unspecified)	6.7 µM (inactive)
CC(=O)O[C@H]1[C@H](O[C@H]2CC[C@]34C[C@]35CC[C@]3(C)[C@@H]([C@@]6(C)CC[C@@H](C(C)(C)O)O6)[C@@H](O)C[C@@]3(C)[C@@H]5C[C@H](O[C@@H]3O[C@H](CO)[C@@H](O)[C@H](O)[C@H]3O)[C@H]4C2(C)C)OC[C@@H](O)[C@@H]1O	> 100 µM (inactive)
N#CCc1cccc(CC#N)c1Br	> 100 µM (inactive)
COc1cc(C)c2c(c1)CN1CN2Cc2cc(OC)cc(C)c21	56.8 µM (inactive)
CC/C(C)=C1\CCC(CN2CCOCC2)C1=O (stereo unspecified)	21.8 µM (inactive)
CCOC(=O)c1cnc2c(ccc3ncccc32)c1NCCCN(CC)CC	> 100 µM (inactive)
CN(/N=N/c1[nH]cnc1C(N)=O)C1CCCCC1	> 100 µM (inactive)
O=C1c2ccccc2C(=O)N1CCn1ccc(NC(c2ccccc2)(c2ccccc2)c2ccccc2)nc1=O	30.8 µM (inactive)
COc1cc(C[S+]2CCCC2)c(SC)cc1C[S+]1CCCC1	> 100 µM (inactive)
COc1ccc(N2C(=O)C(N3C(=O)C=CC3=O)C2C=O)cc1 (stereo unspecified)	> 100 µM (inactive)
O=C(O)CCC(NC(=O)c1ccccc1)C(=O)O (stereo unspecified)	> 100 µM (inactive)
C[n+]1ccc2[nH]c3ccccc3c2c1	> 100 µM (inactive)

====

test system: OVCAR-8; assay: NCI tumour cell line growth inhibition, 48 h
Calls of active or inactive are those of the source. No stated cut-off is given here; in the data, active = GI50 up to about 1.1 µM and inactive = higher.
Outcomes: active, inactive

molecule	target-or-test-system	category
CN(/N=N/c1[nH]cnc1C(N)=O)C1CCCCC1	OVCAR-8	inactive
Cc1sc2c(c1C)C(=O)c1cccn1-2	OVCAR-8	inactive
OCCOc1ccc(-c2cc(-c3ccccn3)nc(-c3ccccn3)c2)cc1	OVCAR-8	active
Cc1cc(C2CC(O)C(CO)O2)c(F)cc1F (stereo not drawn)	OVCAR-8	inactive
O=C(C#CP(=O)(O)c1ccccc1)c1ccccc1	OVCAR-8	inactive
COc1cc(-c2cc(=O)c3c(O)c(OC)c(OC)c(OC)c3o2)cc(OC)c1OC	OVCAR-8	inactive
O=c1[nH][nH]c(=O)n1Cc1ccccc1Cn1c(=O)[nH][nH]c1=O	OVCAR-8	inactive
O=C1/C(=C/c2ccccc2)CCc2ccc(Cl)nc21	OVCAR-8	inactive
CCCC1C(=O)C(CC)Cc2c(OC)ccc(OC)c21 (stereo not drawn)	OVCAR-8	inactive
C=CC1(c2ccc(OC)cc2)OCCCO1	OVCAR-8	inactive
C[C@@H](CC(O)C1OC1(C)C)[C@@H]1CC[C@]2(C)C3=CCC4C(C)(C)C(O)CC[C@]4(C)C3CCC12C (stereo partly drawn)	OVCAR-8	inactive
O=C(O)c1cc2c(ncc3c(=O)n(-c4ccccc4)[nH]c32)s1	OVCAR-8	inactive
N#CCc1cccc(CC#N)c1Br	OVCAR-8	inactive
CC(=O)NNC(=S)N/C=C1/C(=O)Oc2ccccc2C1=O	OVCAR-8	inactive
Cc1ccc2c(c1)SC1=Nc3sc4cc(C)ccc4[n+]3CN12	OVCAR-8	inactive
O=C(/C=C/c1cccc([N+](=O)[O-])c1)N1CCN(CCOC(c2ccccc2)c2ccccc2)CC1	OVCAR-8	inactive
COc1ccc(OC2OC(CO)C(OCc3ccccc3)C(OCc3ccccc3)C2OCc2ccccc2)cc1 (stereo not drawn)	OVCAR-8	inactive
O=c1ccn(CC2(CO)CCCC2)c(=O)[nH]1	OVCAR-8	inactive
COC(=O)[C@](NC(=O)OCc1ccccc1)([C@@H](C)Sc1ccc(C)cc1)C(F)(F)F	OVCAR-8	inactive
O=C(NC1C2CC3CC(C2)CC1C3)c1ccncn1 (stereo not drawn)	OVCAR-8	inactive
COc1ccc(S(=O)(=O)N[C@H](C(=O)O)c2ccccc2)cc1	OVCAR-8	inactive
COc1cc(O)c2c(=O)c(OC)c(-c3ccc(OC)c(O)c3)oc2c1	OVCAR-8	inactive
NNC(=O)CC(=O)Nc1cccc(Cl)c1	OVCAR-8	inactive
